# MEASURED_TARGET: EGFR wildtype (WT) (Homo sapiens, UniProt P00533)
# Sequence (P00533 25-1210): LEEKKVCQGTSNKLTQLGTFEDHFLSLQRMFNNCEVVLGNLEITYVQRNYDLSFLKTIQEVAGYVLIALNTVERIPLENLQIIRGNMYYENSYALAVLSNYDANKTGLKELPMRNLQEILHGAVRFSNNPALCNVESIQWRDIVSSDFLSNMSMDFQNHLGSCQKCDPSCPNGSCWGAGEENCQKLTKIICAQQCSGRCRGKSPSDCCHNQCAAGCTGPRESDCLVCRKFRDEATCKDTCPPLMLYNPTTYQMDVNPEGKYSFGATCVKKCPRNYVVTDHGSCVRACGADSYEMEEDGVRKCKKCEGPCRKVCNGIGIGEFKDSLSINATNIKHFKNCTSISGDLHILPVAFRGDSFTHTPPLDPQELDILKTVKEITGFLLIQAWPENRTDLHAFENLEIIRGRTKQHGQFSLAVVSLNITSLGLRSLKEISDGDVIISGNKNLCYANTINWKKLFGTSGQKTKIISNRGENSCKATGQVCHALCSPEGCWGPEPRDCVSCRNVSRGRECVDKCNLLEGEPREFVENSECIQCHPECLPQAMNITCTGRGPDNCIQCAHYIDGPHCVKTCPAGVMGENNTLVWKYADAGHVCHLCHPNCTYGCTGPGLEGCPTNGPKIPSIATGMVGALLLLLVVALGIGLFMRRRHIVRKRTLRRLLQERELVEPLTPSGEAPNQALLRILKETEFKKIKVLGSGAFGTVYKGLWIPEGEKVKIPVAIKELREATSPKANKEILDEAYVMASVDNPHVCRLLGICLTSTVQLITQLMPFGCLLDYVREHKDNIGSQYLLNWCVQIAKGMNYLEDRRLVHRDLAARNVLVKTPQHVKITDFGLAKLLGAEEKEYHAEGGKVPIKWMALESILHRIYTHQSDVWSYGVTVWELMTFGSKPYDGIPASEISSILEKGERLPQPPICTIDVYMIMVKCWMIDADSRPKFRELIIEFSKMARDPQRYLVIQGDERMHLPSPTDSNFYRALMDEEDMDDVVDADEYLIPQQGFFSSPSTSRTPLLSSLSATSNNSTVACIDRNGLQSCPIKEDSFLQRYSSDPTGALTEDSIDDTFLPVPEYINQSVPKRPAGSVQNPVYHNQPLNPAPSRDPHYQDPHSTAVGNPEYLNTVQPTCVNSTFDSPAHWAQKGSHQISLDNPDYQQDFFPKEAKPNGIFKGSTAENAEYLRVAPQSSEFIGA
# TEST_METHOD_NOTES: Biochemical EGFR kinase inhibition assay (Lance Ultra TR-FRET), wildtype
# RUN_PARAMETERS: IC50 WT (nM), 100 μM ATP
PROPERTY_MEASURED: IC50 (nM)

> print(dat)
                                   compound  property.measured  value.measured
1  CN1CCC2(CC1)CCN(c1cc(Nc3ccnc(-c4cnn(S(=O)(=O)C5CC5)c4)n3)ncc1C#Cc1cnn(CC(F)F)c1)CC2               IC50            4540
2  CN1CCn2ncc(C#Cc3cnc(Nc4ccnc(-c5cnn(S(=O)(=O)C6CC6)c5)n4)cc3N3CCC(C)(CO)CC3)c2C1               IC50            3760
3  CC1(CO)CCN(c2cc(Nc3ccnc(-c4cnn(S(=O)(=O)C5CC5)c4)n3)ncc2C#Cc2cnn3c2CNCC3)CC1               IC50             853

I = CN(C)CCCn1cc(C#Cc2cnc(Nc3ccnc(-c4cnn(S(=O)(=O)C5CC5)c4)n3)cc2N2CCC(C)(CO)CC2)cn1
II = CC1(CO)CCN(c2cc(Nc3ccnc(-c4cnn(S(=O)(=O)C5CC5)c4)n3)ncc2C#Cc2cnn(CCN3CCOCC3)c2)CC1
III = CC1(CO)CCN(c2cc(Nc3ccnc(-c4cnn(S(=O)(=O)C5CC5)c4)n3)ncc2C#CCCF)CC1
Inquiry: # rank by IC50, ascending (min first) Give me the labels in the order the question wants.
Reply text: I, II, III
(I: 212 nM, II: 719 nM, III: 5290 nM)
